# measured_on: released M^pro-GST (Severe acute respiratory syndrome coronavirus 2, UniProt P0DTD1, Q3569E)
# Type: cell-based, SARS-CoV-2
observable: GFP signal (GFP degradation by the released M^pro-GST)

1) CC(C)C[C@H](NC(=O)[C@H]1O[C@@H]1C(=O)O)C(=O)NCCCCN=C(N)N [E-64]
background levels
2) COC(=O)N[C@H](C(=O)N[C@@H](Cc1ccccc1)[C@@H](O)CN(Cc1ccc(-c2ccccn2)cc1)NC(=O)[C@@H](NC(=O)OC)C(C)(C)C)C(C)(C)C [atazanavir]
background levels
3) Cc1cccc(C)c1OCC(=O)N[C@@H](Cc1ccccc1)[C@@H](O)C[C@H](Cc1ccccc1)NC(=O)[C@H](C(C)C)N1CCCNC1=O [lopinavir]
background levels
